Where do the numbers come from? From ChEMBL document CHEMBL1150405.

# System Name: Delta-type opioid receptor (Mus musculus, UniProt P32300)
# Sequence (P32300 whole entry): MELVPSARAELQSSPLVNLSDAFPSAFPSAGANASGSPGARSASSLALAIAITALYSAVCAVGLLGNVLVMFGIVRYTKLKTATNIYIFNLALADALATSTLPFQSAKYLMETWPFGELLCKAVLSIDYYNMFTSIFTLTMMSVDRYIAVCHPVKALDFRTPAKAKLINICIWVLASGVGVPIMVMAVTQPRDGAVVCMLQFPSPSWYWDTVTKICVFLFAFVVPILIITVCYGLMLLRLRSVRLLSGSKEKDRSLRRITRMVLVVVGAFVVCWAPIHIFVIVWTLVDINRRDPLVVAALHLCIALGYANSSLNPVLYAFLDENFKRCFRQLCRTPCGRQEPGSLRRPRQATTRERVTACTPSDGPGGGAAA
# Protocol Text: Agonist activity at delta opioid receptor in mouse vas deferens assessed as inhibition of electrically-stimulated contraction
# Format: functional, tissue-based
Outcome Measure: IC50

Reference set, count: 2
1) CNC(=O)[C@H](Cc1ccccc1)NC(=O)[C@H](Cc1ccccc1)NC(=O)[C@@H]1CCCN1C(=O)[C@@H](N)Cc1ccc(O)cc1 ... 54.6 nM
2) CCOC(=O)[C@H](Cc1ccccc1)NC(=O)[C@H](Cc1ccccc1)NC(=O)[C@@H]1CCCN1C(=O)[C@@H](N)Cc1ccc(O)cc1 ... 63.7 nM

Now look at this one.
Lab note: need IC50 with Delta-type opioid receptor (Mus musculus, UniProt P32300) for entry `CN(C)C(=O)[C@H](Cc1ccccc1)NC(=O)[C@H](Cc1ccccc1)NC(=O)[C@@H]1CCCN1C(=O)[C@@H](N)Cc1ccc(O)cc1` , please look it up. 2720 nM
